Biological target: recombinant PDE4 enzyme
Assay: PDE4 assay: [3H] cAMP Scintillation Proximity Assay (SPA) of phosphodiesterase activity
Details: yeast extract of recombinant PDE4 enzyme; 30 nM [3H] cAMP; 1 hr at room temperature; pH 7.5
measure: IC50
Returns: string containing the numeric result and its unit.

Some solved entries appear below for comparison.
molecule="CC1(C)CCc2c(Nc3c(Cl)cncc3Cl)nc3c(c(O)nn3Cc3ccc(C(N)=O)cc3)c2C1 [Example 14]" tested_target="recombinant PDE4 enzyme" measure=IC50 meas_value="5.17 nM"
molecule="CC1(C)CCc2c(Nc3c(Cl)cncc3Cl)nc3c(c(O)nn3CCCN3CCOCC3)c2C1 [Example 15]" tested_target="recombinant PDE4 enzyme" measure=IC50 meas_value="6.14 nM"
molecule="CN(C)C(=O)c1cccc(S(=O)(=O)n2nc(O)c3c4c(c(Nc5c(Cl)cncc5Cl)nc32)CCC(C)(C)C4)c1 [Example 3]" tested_target="recombinant PDE4 enzyme" measure=IC50 meas_value="16.8 nM"

Let us move to another entry and its IC50.
Look up IC50: CC1(C)CCc2c(Nc3c(Cl)cncc3Cl)nc3c(c(O)nn3CCCc3cccc(C(N)=O)c3)c2C1 [Example 17]
2.1 nM

----------
Target: recombinant PDE4 enzyme
Assay: PDE4 assay: [3H] cAMP Scintillation Proximity Assay (SPA) of phosphodiesterase activity
Format: biochemical
Details: yeast extract of recombinant PDE4 enzyme; 30 nM [3H] cAMP; 1 hr at room temperature; pH 7.5
measure: IC50 (nM)
Response body: numeric value in nM, unit text excluded.

molecule="CC1(C)CCc2c(Nc3c(Cl)cncc3Cl)nc3c(c(O)nn3Cc3ccc(C(=O)O)cc3)c2C1 [Example 12]" measure=IC50 unit_annotation=nM meas_value=2.4
molecule="Cn1nc(O)c2c3c(c(Nc4c(Cl)cncc4Cl)nc21)CCC(C)(C)C3 [Example 5]" measure=IC50 unit_annotation=nM meas_value=17.1
molecule="CC1(C)CCc2c(Nc3c(Cl)cncc3Cl)nc3[nH]nc(O)c3c2C1 [Example 1]" measure=IC50 unit_annotation=nM meas_value=3.9
molecule="CC1(C)CCc2c(Nc3c(Cl)cncc3Cl)nc3c(c(O)nn3CC(N)=O)c2C1 [Example 9]" measure=IC50 unit_annotation=nM meas_value=18.8
molecule="CC1(C)CCc2c(Nc3c(Cl)cncc3Cl)nc3c(c(O)nn3Cc3cccnc3)c2C1 [Example 8]" measure=IC50 unit_annotation=nM meas_value=7.4

Entry CC1(C)CCc2c(Nc3c(Cl)cncc3Cl)nc3[nH]nc(N)c3c2C1 [Example 2] has what IC50?
62

Recorded IC50 of CC1(C)CCc2c(Nc3c(Cl)cncc3Cl)nc3c(c(O)nn3Cc3cccc(C(=O)O)c3)c2C1 [Example 7] , please.
3.1

Using the record for COc1cccc(Cn2nc(O)c3c4c(c(Nc5c(Cl)cncc5Cl)nc32)CCC(C)(C)C4)c1 [Example 4] , report its IC50.
11

----------
Biological target: recombinant PDE4 enzyme
Assay: PDE4 assay: [3H] cAMP Scintillation Proximity Assay (SPA) of phosphodiesterase activity
Details: yeast extract of recombinant PDE4 enzyme; 30 nM [3H] cAMP; 1 hr at room temperature; pH 7.5
measure: pIC50
Bear in mind: pIC50 is minus log10 of a mol/L concentration; give just that figure.

smiles_input=CC1(C)CCc2c(Nc3c(Cl)cncc3Cl)nc3c(c(O)nn3Cc3cccc(C(N)=O)c3)c2C1 measure=pIC50 meas_value=8.64
smiles_input=CC1(C)CCc2c(Nc3c(Cl)cncc3Cl)nc3c(c(O)nn3CCCc3cccc(C#N)c3)c2C1 measure=pIC50 meas_value=7.81

Which pIC50 is listed for CC1(C)CCc2c(Nc3c(Cl)cncc3Cl)nc3c(c(O)nn3Cc3cccc(C#N)c3)c2C1 ?
8.63

Source of measurements: patent EP2226323A1
